Task for the reader: assign each of the following variants its reported folding stability dG.
B1: r4_43_TrROS_Hall (parent)
chain: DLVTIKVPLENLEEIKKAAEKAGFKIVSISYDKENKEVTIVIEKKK

- Variants of: B1
- assay name: folding stability dG (cDNA display proteolysis); higher = more stable
- measurement setup: PBS, room temperature

Recorded results for 2 variants are shown here.
- alteration: "K17M"
  val: "3.82 kcal/mol"
- alteration: "I40Q"
  val: "0.343 kcal/mol"

Go through the list and state folding stability dG for each entry.
1. S30I
2. D32A
3. T4C
4. I15W
5. S30E
6. I42M
7. K33G
8. L12H

Ans.
1. 3.66 kcal/mol
2. 3.54 kcal/mol
3. 3.44 kcal/mol
4. 4.14 kcal/mol
5. 3.4 kcal/mol
6. 3.85 kcal/mol
7. 3.28 kcal/mol
8. 3.41 kcal/mol

Qu. Report folding stability dG for "K16F" please.
Ans. 3.62 kcal/mol
